Consider the following compounds; for each one, report its IC50.
System: human colon adenocarcinoma (colon 205 cells)
Assay: Inhibition of multiplication of human colon adenocarcinoma (colon 205 cells), MTT assay
Format: cell-based
Conditions: 72 hours
Unit mg/L implied. Number only.

Note to self: IC50 recorded for CC(C)CCCC(C)CCCC(C)CCCC(C)CCOCC(C[S+]([O-])CCOCC[n+]1ccccc1)Oc1ncccn1.[Cl-] (stereo not shown) was 0.63

Note to self: IC50 recorded for CCCCCCCCCCCCCCCCCCOCC(CSCCOCC[n+]1ccn(CCCC(=O)[O-])c1)OC (stereo not shown) was 2.5

Note to self: IC50 recorded for CCCCCCCCCCCCCCCCCCOCC(CS(=O)(=O)CCCOCCC[n+]1ccsc1)Oc1ncccn1 (stereo not shown) was 1.25

Note to self: IC50 recorded for CCCCCCCCCCCCCCCCCCOCC(C[S+]([O-])CCOCC[n+]1ccccc1)Oc1ncccn1.[Cl-] (stereo not shown) was 0.16

Note to self: IC50 recorded for CCCCCCCCCCCCCCCCCCOCC(CSCCOCC[N+]1(C)CCCC1)Oc1ncccn1.[Cl-] (stereo not shown) was 1.25

Note to self: IC50 recorded for CCCCCCCCCCCCCCCCCCOCC(C[S+]([O-])CCOCC[N+]1(C)CCCC1)Oc1ncccn1.[Cl-] (stereo not shown) was 0.32

Note to self: IC50 recorded for CCCCCCCCCCCCCCCCCCOCC(C[S+]([O-])CCOCC[n+]1cccc2ccccc21)Oc1ncccn1 (stereo not shown) was 0.32

Note to self: IC50 recorded for [Cl-].[O-][S+](CCOCC[n+]1ccccc1)CC(COCCCCCCCCCCCCC1CCCCC1)Oc1ncccn1 (stereo not shown) was 0.63

Note to self: IC50 recorded for CCCCCCCCCCCCCCCCCCOCC(CSCCOCC[n+]1ccn(CCC(C)(C)C(=O)OCC)c1)Oc1ncccn1 (stereo not shown) was 0.63

Note to self: IC50 recorded for CCCCCCCCCCCCCCCCCCOCC(CSCCOCC[n+]1cccc(CCCCC(=O)[O-])c1)Oc1ncccn1 (stereo not shown) was 5

Note to self: IC50 recorded for CCCCCCCCCCCCCCCCCCOCC(CSCCOCC[n+]1ccccc1)Oc1ccncn1.[Cl-] (stereo not shown) was 1.25

Note to self: IC50 recorded for O=C([O-])CCCn1cc[n+](CCOCCSCC(COCCCCCCCCCCCCC2CCCCC2)Oc2ncccn2)c1 (stereo not shown) was 5

Note to self: IC50 recorded for CCCCCCCCCCCCCCCCCCOCC(C[S+]([O-])CCOCC[N+](C)(C)C)OC.[Cl-] (stereo not shown) was 0.32

Note to self: IC50 recorded for CCCCCCCCCCCCCCCCCCOCC(C[S+]([O-])CCOCC[n+]1csc(CCO)c1C)Oc1ncccn1.[Cl-] (stereo not shown) was 0.63

Note to self: IC50 recorded for CCCCCCCCCCCCCCCCCCOCC(C[S+]([O-])CCOCC[N+](C)(C)C)Oc1ncccn1.[Cl-] (stereo not shown) was 0.63

Note to self: IC50 recorded for CCCCCCCCCCCCCCCCCCOCC(CSCCOCC[n+]1ccn(CCCCCC(=O)OCC)c1)Oc1ncccn1 (stereo not shown) was 2.5

Note to self: IC50 recorded for CCCCCCCCCCCCCCCCCCOCC(C[S+]([O-])CCOCC[n+]1ccc2ccccc2c1)Oc1ncccn1.[Cl-] (stereo not shown) was 0.63

Note to self: IC50 recorded for CCCCCCCCCCCCCCCCCCOCC(CSCCOCCOCC[N+](C)(C)C)Oc1ncccn1 (stereo not shown) was 1.25

Note to self: IC50 recorded for CCCCCCCCCCCCCCCCCCOCC(CS(=O)(=O)CCCCCOCCCCC[n+]1ccccc1)Oc1ncccn1.[Cl-] (stereo not shown) was 1.25

Note to self: IC50 recorded for CCCCCCCCCCCCCCCCCCOCC(C[S+]([O-])CCOCC[n+]1ccsc1)Oc1ncccn1 (stereo not shown) was 1.25

Note to self: IC50 recorded for CCCCCCCCCCCCCCCCCCOCC(C[S+]([O-])CCCOCCC[n+]1ccsc1)Oc1ncccn1 (stereo not shown) was 1.25

Note to self: IC50 recorded for CCCCCCCCCCCCCCCCCCOCC(CSCCCOCCC[n+]1ccn(CCCCCC(=O)[O-])c1)Oc1ncccn1 (stereo not shown) was 1.25

Note to self: IC50 recorded for CCCCCCCCCCCCCCCCCCOCC(CSCCOCC[n+]1ccn(CCCCCC(=O)[O-])c1)Oc1ccncn1 (stereo not shown) was 2.5

Note to self: IC50 recorded for CCCCCCCCCCCCCCCCCCOCC(C[S+]([O-])CCOCC[n+]1ccccc1)Oc1ccncn1.[Cl-] (stereo not shown) was 0.63

Note to self: IC50 recorded for CCCCCCCCCCCCCCCCCCOCC(C[S+]([O-])CCOCCOCC[N+](C)(C)C)Oc1ncccn1.[Cl-] (stereo not shown) was 0.63

Note to self: IC50 recorded for CCCCCCCCCCCCCCCCCCOCC(CS(=O)(=O)CCOCC[n+]1ccccc1)Oc1ncccn1.[Cl-] (stereo not shown) was 0.63

Note to self: IC50 recorded for CCCCCCCCCCCCCCCCCCOCC(C[S+]([O-])CCOCC[n+]1cccc(CCCO)c1)Oc1ncccn1.[Cl-] (stereo not shown) was 0.63

Note to self: IC50 recorded for CCCCCCCCCCCCCCCCCCOCC(CSCCOCC[n+]1ccn(CCCCCC(=O)[O-])c1)Oc1ncccn1 (stereo not shown) was 0.63

Note to self: IC50 recorded for CCCCCCCCCCCCCCCCCCOCC(C[S+]([O-])CCOCC[n+]1ccc(N(C)C)cc1)Oc1ncccn1.[Cl-] (stereo not shown) was 0.63

Note to self: IC50 recorded for CCCCCCCCCCCCCCCCCCOCC(CSCCOCC[N+](C)(C)C)OC (stereo not shown) was 1.25

Note to self: IC50 recorded for CCCCCCCCCCCCCCCCCCOCC(CS(=O)(=O)CCCOCCC[n+]1ccccc1)Oc1ncccn1.[Cl-] (stereo not shown) was 0.63
